- experimental target: Glutamate NMDA receptor
- run description: The compound was tested for its ability to inhibit [3H]Gly binding to N-methyl-D-aspartate glutamate receptor from rat whole brain.
property label: Ki

-- ask Complete the entry with Ki for O=[N+]([O-])c1cc2nc(O)c3nccn3c2cc1-n1ccnc1
-- reply > 300 µM

---

- experimental target: Glutamate receptor ionotropic, AMPA (Rattus norvegicus, UniProt P19490+P19491+P19492+P19493)
- run description: Inhibition of [3H]AMPA binding to Ionotropic glutamate receptor from rat whole brain.
Form field: pKi (one value per entry).
FYI, pKi means -log10 of a concentration in mol per litre.

-- ask Complete the entry with pKi for Cc1nccn1-c1cc2nc(O)c(O)nc2cc1[N+](=O)[O-]
-- reply 6.41

-- ask Complete the entry with pKi for CCC1CN=C2C(=O)Nc3cc([N+](=O)[O-])c(-n4ccnc4)cc3N21 (stereo not given)
-- reply 6.82

-- ask Complete the entry with pKi for CCc1nnc2c(O)nc3cc([N+](=O)[O-])c(-n4ccnc4)cc3n12
-- reply 7.32
